Source listed as the supplement of paper PMC10057847.

B1: library; the commonest letter at each place (parent)
chain: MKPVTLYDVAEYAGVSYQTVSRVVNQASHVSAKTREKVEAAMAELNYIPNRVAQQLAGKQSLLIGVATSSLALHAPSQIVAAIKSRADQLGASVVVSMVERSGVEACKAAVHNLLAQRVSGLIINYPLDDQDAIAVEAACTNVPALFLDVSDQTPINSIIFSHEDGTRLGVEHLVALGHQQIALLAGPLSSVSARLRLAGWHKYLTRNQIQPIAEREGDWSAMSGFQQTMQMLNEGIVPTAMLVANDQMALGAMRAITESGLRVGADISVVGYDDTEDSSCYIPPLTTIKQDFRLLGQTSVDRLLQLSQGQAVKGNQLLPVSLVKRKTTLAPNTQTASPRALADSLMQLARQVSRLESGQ

Variants of: B1
cond: with IPTG
Strictly below 2 in EC50 for IPTG (log10 µmol/L): fulfilled. Otherwise: not fulfilled.

// below: answered variants
Please state whether EC50 for IPTG (log10 µmol/L) is below 2 for V136E fulfilled

Please state whether EC50 for IPTG (log10 µmol/L) is below 2 for A72V K84N I210F M254T T336S fulfilled

Please state whether EC50 for IPTG (log10 µmol/L) is below 2 for D88G not fulfilled

Next:
Please state whether EC50 for IPTG (log10 µmol/L) is below 2 for I160F L185F not fulfilled

Please state whether EC50 for IPTG (log10 µmol/L) is below 2 for S70R V150A S190T F226L fulfilled

Please state whether EC50 for IPTG (log10 µmol/L) is below 2 for I160N Q231H I289V D302E not fulfilled

Please state whether EC50 for IPTG (log10 µmol/L) is below 2 for K2R A92V R195P D278G not fulfilled

Please state whether EC50 for IPTG (log10 µmol/L) is below 2 for S70R V136E fulfilled

Please state whether EC50 for IPTG (log10 µmol/L) is below 2 for S97T fulfilled
